tested on: CMV strain AD-169; assay: CPE assay, CMV AD-169 in HFF cells; format: cell-based; conditions: Human betaherpesvirus 5, AD169, CMV AD-169, HFF (human foreskin fibroblast), without 24 h drug pretreatment
Observed Property: IC50

>>> result("Nc1nc2c(ncn2COC(CO)CO)c(=O)[nH]1 [GCV, reference compound]")
"5.8 µM"

---

test: physchem; conditions: water
Observed Property: solubility

>>> result("CC(=O)N[C@H](CCCNC(=N)N)C(=O)N[C@H](CCCNC(=N)N)C(=O)N[C@H](CCCNC(=N)N)C(=O)N[C@H](CCCNC(=N)N)C(=O)N[C@H](CCCNC(=N)N)C(=O)N[C@H](CCCNC(=N)N)C(=O)N[C@H](CCCNC(=N)N)C(=O)N[C@H](CCCNC(=N)N)C(=O)N[C@H](CCCNC(=N)N)C(N)=O [AV-9, acetyl-[D-Arg]9 -NH2]")
"~1000 mg/mL"

Cited source for all entries: patent US5633230A
